Data provenance is patent US10870638B2.

Test system: wild oat (Avena fatua L.)
Test: Test Example 1: foliar treatment, growth inhibition rate on 14th day
Assay type: in vivo
Details: active ingredient amount 31 g/ha, 14th day after application, visual, 0 = non-treated, 100 = complete kill
Growth inhibition rate (%) Wild oat values by entry
Return type: number; implicit unit %.

[[record]]
smiles = "C=CCOc1c(C)nn(C)c(=O)c1-c1cc(Oc2cnc3cc(Cl)ccc3n2)ccc1C"
quantity = "Growth inhibition rate (%) Wild oat"
unitabbreviation = "%"
endpointvalue = 25


Exercise: So what's the measured Growth inhibition rate (%) Wild oat for this one? Cc1ccc(Oc2cnc3cc(Cl)ccc3n2)cc1-c1c(OC(=S)Sc2ccccc2)c(C)nn(C)c1=O
Key: 98

Exercise: Next compound: Cc1ccc(Oc2cnc3cc(Cl)ccc3n2)cc1-c1c(OC(=O)C=CCl)c(C)nn(C)c1=O
Key: 78

----------
Test system: barnyardgrass (Echinochloa crus-qalli L.)
Assay: Test Example 1: foliar treatment, growth inhibition rate on 14th day
Type: in vivo
Conditions: active ingredient amount 31 g/ha, 14th day after application
Growth inhibition rate (%) Barnyardgrass values by entry
Return type: number; implicit unit %.

# count of solved cases: 3
[[record]]
smiles = "CCn1nc(C)c(OC(C)=O)c(-c2cc(Oc3ncc(C(F)(F)F)cc3Cl)ccc2C)c1=O"
endpointvalue = 100

[[record]]
smiles = "CC(=O)Oc1c(C)nn(C)c(=O)c1-c1cc(Oc2ccc(C(F)(F)F)cc2)ccc1C"
endpointvalue = 85

[[record]]
smiles = "Cc1ccc(Oc2nc3cccc(Cl)c3o2)cc1-c1c(O)cnn(C)c1=O"
endpointvalue = 93


Exercise: So what's the measured Growth inhibition rate (%) Barnyardgrass for this one? CCc1ccc(Oc2ncc(C(F)(F)F)cc2Cl)cc1-c1c(O)cnn(C)c1=O
Key: 100

Exercise: Next compound: CCn1nc(C)c(OC(C)=O)c(-c2cc(Oc3nc4ccc(Cl)cc4o3)ccc2C)c1=O
Key: 100

Exercise: Next compound: CCn1nc(C)c(O)c(-c2cc(Oc3ncc(C(F)(F)F)cc3Cl)ccc2C)c1=O
Key: 99

Exercise: Next compound: CC(=O)Oc1cnn(CC2CC2)c(=O)c1-c1cccc(Oc2ncc(C(F)(F)F)cc2Cl)c1C
Key: 95

Exercise: Next compound: CCc1ccc(Oc2nc3ccc(Cl)cc3s2)cc1-c1c(O)c(C)nn(C)c1=O
Key: 100

----------
System: wild oat (Avena fatua L.)
Experiment: Test Example 1: foliar treatment, growth inhibition rate on 14th day
Format: in vivo
Settings: active ingredient amount 31 g/ha, 14th day after application, visual, 0 = non-treated, 100 = complete kill
Growth inhibition rate (%) Wild oat values by entry
Return type: number; implicit unit %.

[[record]]
compound = "CCS(=O)(=O)Oc1c(C)nn(C)c(=O)c1-c1cc(Oc2cnc3cc(Cl)ccc3n2)ccc1C [Compound 3-68]"
studysystem = "wild oat (Avena fatua L.)"
endpointvalue = 90


Exercise: So what's the measured Growth inhibition rate (%) Wild oat for this one? C=CC(=O)Oc1c(C)nn(C)c(=O)c1-c1cc(Oc2cnc3cc(Cl)ccc3n2)ccc1C [Compound 3-49]
Key: 98

Exercise: Next compound: COC(=O)CCC(=O)Oc1c(C)nn(C)c(=O)c1-c1cc(Oc2cnc3cc(Cl)ccc3n2)ccc1C [Compound 3-46]
Key: 100

Exercise: Next compound: COCCOCOc1c(C)nn(C)c(=O)c1-c1cc(Oc2cnc3cc(Cl)ccc3n2)ccc1C [Compound 3-75]
Key: 98

Exercise: Next compound: C=CCOC(=O)Oc1c(C)nn(C)c(=O)c1-c1cc(Oc2cnc3cc(Cl)ccc3n2)ccc1C [Compound 3-58]
Key: 95

Exercise: Next compound: Cc1ccc(Oc2cnc3cc(Cl)ccc3n2)cc1-c1c(OC(=O)OC(C)C)c(C)nn(C)c1=O [Compound 3-60]
Key: 98
